Property measured: melting point

CCCCCCCCCCN=C=S: 71 to 72 °C
O=C(Cl)OCC1c2ccccc2Oc2ccccc21: 64 to 65 °C
CN(C)CCN(C1CCN(C)CC1)S(=O)(=O)c1ccc(Nc2nccc(Nc3ccc(F)cc3)n2)cc1: 135 to 137 °C
O=C(NC(P(=O)(O)O)P(=O)(O)O)c1cc2ccccc2s1: 234 to 238 °C
NCCc1c[nH]c2cc3c(cc12)C(=O)NCC3: 82 to 86 °C
O=c1[nH]c2cc(-c3ncc[nH]3)c([N+](=O)[O-])cc2[nH]c1=O: > 300 °C
CN(c1ccccc1)S(=O)(=O)c1ccc(NC(=O)C(C)(O)C(F)(F)F)cc1 (stereo not drawn): 147 to 149 °C
O=C(Oc1ccccn1)c1cc2cc(CCl)ccc2oc1=O: 125 to 129 °C
CCCCc1oc2ccc(C#N)cc2c1C(=O)c1ccc(OCCCN(CCCC)CCCC)cc1: 85 to 87 °C
COc1ccc(CCNCC(O)C(=O)O)cc1OC (stereo not drawn): 188 °C
C=CCNC(=S)NC(=O)c1ccccc1: 68 to 69 °C
COc1ccc(C(=O)N(c2ccccc2)c2ccc(OCCCN(C)C)cc2)cc1: 111 to 115 °C
COCN1C(C)=C(C(=O)OC)C(c2cccc(Cl)c2Cl)C(C(=O)OCOC(=O)C(C)(C)C)=C1C (single isomer, unassigned; (+)): 149 to 150 °C
CCCCCCCc1ccc(C(=O)CCC(=O)O)cc1: 101 to 104 °C
CNN(NC)C(=O)Nc1cccc2c1C(=O)c1c-2n[nH]c1-c1cc(C)sc1C: 252 °C
C=C(C)C(=O)Oc1ccc(S(=O)(=O)N(C(=O)OC(C)(C)C)c2ccccc2)cc1: 112 to 114 °C
COC(=O)C1Cc2c([nH]c3ccccc23)C(c2ccc(Cl)cc2Cl)N1C(=O)CCl (stereo not drawn): 106 to 109 °C
C=CCc1c(O)c(C)cc2c1C(C)(C)CC1(CC(C)(C)c3c(cc(C)c(O)c3CC=C)O1)O2: 95 to 97 °C
COc1ccc(CNn2nnc3c(-c4ccco4)ncnc32)cc1: 166 to 168 °C
COc1cc2c(Nc3ccc(Cl)cc3F)ncnc2cc1OCCCC(=O)N1CCCC1: 254 to 256 °C
CC(=O)Oc1cccc2[nH]ccc12: 97 to 98 °C
CCn1c(C(=O)N(C)Cc2cc(C(F)(F)F)cc(C(F)(F)F)c2)c(-c2ccccc2)c2ccccc2c1=O: 105 to 106 °C
CCOC(=O)CNCc1cc(N(C)C)ccc1[N+](=O)[O-]: 70 to 72 °C

====

Property measured: melting point

CC(=O)c1nc(-c2ccc(=O)n(C(C)C)n2)c(-c2ccccc2)nc1N: 234 to 236 °C
CC(C)(C)C(=O)NS(=O)(=O)c1cccc([N+](=O)[O-])c1: 178 to 181 °C
Cc1cncc(-c2ccc3c(=O)c(C(=O)O)cn(C4CC4)c3c2C)c1: 232 °C
O=C1c2cc(OCc3ccccn3)ccc2OCC1Oc1cccnc1 (centres undefined): 155 to 156 °C

====

Each entry below lists one item and its recorded melting point value.
Property measured: melting point

CC(=O)Nc1ccc(N2CCN(Cc3ccccc3)CC2)cc1: 159 to 161 °C
O=C(c1ccccc1)c1cnn2c(-c3ccccc3)ccnc12: 163 to 165 °C
COc1cc2nc(N3CCc4c(cccc4C(=N)N4CCOCC4)C3)[nH]c(=O)c2cc1OC: 249 to 251 °C
